Tested on: MDAMB231/U251
test-details: cells
measurement-setup: 48 h, read-out: MDAMB231/U251 GI50
Consider the following compounds and their measured GI50 readings.
Supply the numeric figure in nM, leaving out any unit text.

O=C(CCCCCNC(=O)/C(=C\c1ccc(Br)s1)c1ccc(Br)cc1)NO [Example 13] | 3000
CSc1ccc(/C=C(\C(=O)NCCCCCC(=O)Nc2nccs2)c2ccc(F)cc2)cc1 [Example 20] | 3000

Now examine the next entry.
## Task Which GI50 value belongs to O=C(CCCCCNC(=O)/C(=C\c1ccccc1[N+](=O)[O-])c1ccc(Cl)cc1)NO [Example 30] ?
## Result 3000

###

Tested on: HDAC activity (Mouse Liver Extract)
test-details: Histone Deacetylase (HDAC) Inhibition Assay using Boc-Lys (Ac)-AMC Substrate
Format: biochemical
measurement-setup: inhibitor at 10 μM; mouse liver enzyme; in % (unit assumed)
measured-quantity: HDAC Inhibition 10 μM
I only need the number, thanks.

# count of solved cases: 3
COc1cc(/C=C(\C(=O)NCCCCCC(=O)NO)c2ccc(F)cc2)ccc1O | 70.82
COc1cc(/C=C(\C(=O)NCCCCCC(=O)NO)c2ccc(F)cc2)cc(OC)c1 | 66.42
Cc1ncsc1/C=C(\C(=O)NCCCCCC(=O)NO)c1ccc(C(F)(F)F)cc1 | 76.69

Note: attention shifts to another entry.
## Task Sample `O=C(CCCCCNC(=O)/C(=C\c1ccc(Cl)o1)c1ccc(F)cc1)NO` — what was its HDAC Inhibition 10 μM?
## Result 83.89
